Molecular target: human IGF1R extracellular domain, His-tagged (human) (UniProt P08069)
Test: ELISA on ECD of IGF1R
READOUT_KIND: pEC50
Please report pEC50 as the negative decimal logarithm of the molar concentration, giving only the number.

Given the binder Hu3A9-C04 (bispecific antibody, part only; not given: Hu3A9 heavy and light chains, part only) heavy, part: GGGGSGGGGSGGGGSQSVLTQPPSASGTPGQRVTISCTGSSSNIGSNDVSWYQQLPGTAPKLLIYANSNRPSGVPDRFSGSKSGTSASLAISGLRSEDEADYYCGAWEQWLNGYVFGCGTKLTVLGGGGSGGGGSGGGGSGGGGSEVQLLESGGGLVQPGGSLRLSCAASGFTFSSYDMSWVRQAPGKLEWVSAISYDNGNTYYADSVKGRFTISRDNSKNTLYLQMNSLRAEDTAVYYCAKGVLTTLMNWFDYWGQGTLVTVSS , what is its reported pEC50?
9.97
